Target Or Test System: IKZF2 (Homo sapiens, UniProt Q96SW2+Q9UKS7)
Sequence (Q9UKS7 1-500 isoform Q9UKS7-2): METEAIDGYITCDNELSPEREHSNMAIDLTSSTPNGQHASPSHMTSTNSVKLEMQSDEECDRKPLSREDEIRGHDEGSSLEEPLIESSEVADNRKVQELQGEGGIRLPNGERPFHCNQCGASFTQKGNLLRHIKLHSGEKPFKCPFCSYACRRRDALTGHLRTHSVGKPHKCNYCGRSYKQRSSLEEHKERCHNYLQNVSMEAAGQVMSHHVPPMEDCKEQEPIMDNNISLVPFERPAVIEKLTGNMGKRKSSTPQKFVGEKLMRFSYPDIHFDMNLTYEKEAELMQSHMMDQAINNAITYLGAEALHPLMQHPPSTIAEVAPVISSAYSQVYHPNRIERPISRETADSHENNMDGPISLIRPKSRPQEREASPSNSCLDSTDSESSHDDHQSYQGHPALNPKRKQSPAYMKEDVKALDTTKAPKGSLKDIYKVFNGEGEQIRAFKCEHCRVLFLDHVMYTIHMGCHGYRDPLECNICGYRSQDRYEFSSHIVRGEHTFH
Sequence (Q96SW2 whole entry): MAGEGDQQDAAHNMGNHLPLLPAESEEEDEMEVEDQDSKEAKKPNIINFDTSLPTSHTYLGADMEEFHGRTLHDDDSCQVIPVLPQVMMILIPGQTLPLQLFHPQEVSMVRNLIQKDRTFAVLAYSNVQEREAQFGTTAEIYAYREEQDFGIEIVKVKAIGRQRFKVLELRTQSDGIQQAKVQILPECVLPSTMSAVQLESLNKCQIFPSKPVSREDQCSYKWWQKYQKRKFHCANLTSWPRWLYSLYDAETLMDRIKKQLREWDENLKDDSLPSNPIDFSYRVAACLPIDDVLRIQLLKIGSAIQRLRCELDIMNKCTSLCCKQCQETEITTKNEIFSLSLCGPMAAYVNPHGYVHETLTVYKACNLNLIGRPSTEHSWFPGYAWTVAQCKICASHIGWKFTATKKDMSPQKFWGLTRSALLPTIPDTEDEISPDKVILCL
Sequence (Q16531 whole entry partner): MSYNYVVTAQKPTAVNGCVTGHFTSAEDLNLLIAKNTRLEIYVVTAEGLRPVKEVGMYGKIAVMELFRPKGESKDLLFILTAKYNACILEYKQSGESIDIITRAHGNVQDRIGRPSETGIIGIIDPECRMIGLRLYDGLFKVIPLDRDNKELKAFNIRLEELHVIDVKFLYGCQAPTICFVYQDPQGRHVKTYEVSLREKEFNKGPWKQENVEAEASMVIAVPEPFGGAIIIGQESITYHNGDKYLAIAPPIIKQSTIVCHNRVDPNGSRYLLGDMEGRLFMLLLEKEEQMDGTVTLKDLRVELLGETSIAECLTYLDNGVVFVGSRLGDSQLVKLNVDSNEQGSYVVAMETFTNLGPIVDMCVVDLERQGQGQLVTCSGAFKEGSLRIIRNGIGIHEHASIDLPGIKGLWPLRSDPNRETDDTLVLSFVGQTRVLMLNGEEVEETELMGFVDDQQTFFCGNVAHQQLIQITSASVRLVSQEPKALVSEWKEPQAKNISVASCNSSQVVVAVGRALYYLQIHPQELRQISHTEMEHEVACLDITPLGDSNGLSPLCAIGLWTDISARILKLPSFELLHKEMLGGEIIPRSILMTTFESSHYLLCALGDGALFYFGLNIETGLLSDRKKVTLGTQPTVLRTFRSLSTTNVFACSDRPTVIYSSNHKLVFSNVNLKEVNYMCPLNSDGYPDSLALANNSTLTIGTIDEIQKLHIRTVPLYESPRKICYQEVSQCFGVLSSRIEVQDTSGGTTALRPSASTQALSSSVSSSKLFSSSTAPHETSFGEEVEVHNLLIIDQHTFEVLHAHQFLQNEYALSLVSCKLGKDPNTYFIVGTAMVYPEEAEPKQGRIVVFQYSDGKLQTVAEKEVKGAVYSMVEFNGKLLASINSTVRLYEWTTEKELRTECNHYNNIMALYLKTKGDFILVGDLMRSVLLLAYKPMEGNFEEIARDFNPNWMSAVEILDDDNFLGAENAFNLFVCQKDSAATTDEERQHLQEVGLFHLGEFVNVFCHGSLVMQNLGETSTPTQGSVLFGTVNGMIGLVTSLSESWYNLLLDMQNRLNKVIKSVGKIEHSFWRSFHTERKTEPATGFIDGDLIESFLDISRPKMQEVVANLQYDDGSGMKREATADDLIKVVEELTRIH
Experiment Description: HEK293 HiBiT in vitro degradation of IKZF2
Format: cell-based
Parameters: expressed in transfected cells
Assay Context: HEK293 HiBiT, 18-24 hr incubation, normalized to DMSO control; read-out: IKZF2 EC50
Measured Endpoint: DC50 (nM)

CC(N[C@H]1CCCC[C@@H]1Cc1ccc2c(c1)CN(C1CCC(=O)NC1=O)C2=O)C1CCS(=O)(=O)CC1 (single isomer, unassigned) [Example 371]	62
CC(C)OC1CCC(N[C@H]2CCCC[C@@H]2Cc2ccc3c(c2)CN(C2CCC(=O)NC2=O)C3=O)CC1 (single isomer, unassigned) [Example 168]	3
O=C1CCC(N2Cc3cc(C[C@H]4CCCC[C@@H]4N4CC(c5ccccc5)C4)ccc3C2=O)C(=O)N1 (some centres unmarked) [Example 55]	25

A. O=C1CCC(N2Cc3cc(C[C@H]4CCCC[C@@H]4NCC45CC(C4)C5)ccc3C2=O)C(=O)N1 (some centres unmarked) [Example 63]
B. O=C1CCC(N2Cc3cc(C[C@H]4CCCC[C@@H]4NCC4OCCO4)ccc3C2=O)C(=O)N1 (some centres unmarked) [Example 60]
C. O=C1CCC(N2Cc3cc(C[C@H]4CCCC[C@@H]4NC4CCCC[C@@H]4F)ccc3C2=O)C(=O)N1 (some centres unmarked) [Example 105]
Let's sort these by DC50, smallest first. Go ahead? Please respond by ranking the labels in the order requested.
C, A, B
